Item-by-item account of inhibition of growth at 100 µM
Tested on: HepG2
Test: Cytotoxicity against human HepG2 cells assessed as growth inhibition at 100 uM after 24 to 48 hrs by MTT assay relative to control
Type: functional
Conditions: read-out: GI

// below: answered molecules
molecule	recorded_measurement
O=S(=O)(c1ccccc1)N(c1ccccc1)c1ccnc2ccc(-c3ccc(O)cc3)cc12	91%
O=C(c1cccnc1Cl)N(c1ccccc1)c1ccnc2ccc(-c3ccc(O)cc3)cc12	88%

Could you now consider this next molecule?
Lookup: inhibition of growth at 100 µM / HepG2 / O=S(=O)(c1ccc2c(c1)OCCO2)N(c1ccccc1)c1ccnc2ccc(-c3ccc(O)cc3)cc12 88%
